system: ZEAMX (Corn, Field); assay: Postemergence herbicidal evaluation; type: in vivo, Zea mays; conditions: postemergence, rate 0.0158 kg/ha
Item-by-item account of ZEAMX herbicidal rating
No unit in the answer, only the number.

# input Respond only with ZEAMX herbicidal rating recorded for CCOC(=O)[C@H](C)N1C(=O)CSC1=Nc1cc(-n2c(=O)cc(C(F)(F)F)n(C)c2=O)c(F)cc1Cl
# output 4.5

# context switch: different compound, same ZEAMX herbicidal rating
# input # return recorded ZEAMX herbicidal rating for entry CCOC(=O)CN1C(=O)C(=C2CCCC2)SC1=Nc1cc(-n2c(=O)cc(C(F)(F)F)n(C)c2=O)c(F)cc1Cl
# output 4.0
